- test.system: T1, recombinant human VEGFR2 extracellular domain (human, UniProt P35968 20-764)
- T1 construct: extracellular domain; also called KDR; Flk-1
- T1 sequence (P35968 20-764): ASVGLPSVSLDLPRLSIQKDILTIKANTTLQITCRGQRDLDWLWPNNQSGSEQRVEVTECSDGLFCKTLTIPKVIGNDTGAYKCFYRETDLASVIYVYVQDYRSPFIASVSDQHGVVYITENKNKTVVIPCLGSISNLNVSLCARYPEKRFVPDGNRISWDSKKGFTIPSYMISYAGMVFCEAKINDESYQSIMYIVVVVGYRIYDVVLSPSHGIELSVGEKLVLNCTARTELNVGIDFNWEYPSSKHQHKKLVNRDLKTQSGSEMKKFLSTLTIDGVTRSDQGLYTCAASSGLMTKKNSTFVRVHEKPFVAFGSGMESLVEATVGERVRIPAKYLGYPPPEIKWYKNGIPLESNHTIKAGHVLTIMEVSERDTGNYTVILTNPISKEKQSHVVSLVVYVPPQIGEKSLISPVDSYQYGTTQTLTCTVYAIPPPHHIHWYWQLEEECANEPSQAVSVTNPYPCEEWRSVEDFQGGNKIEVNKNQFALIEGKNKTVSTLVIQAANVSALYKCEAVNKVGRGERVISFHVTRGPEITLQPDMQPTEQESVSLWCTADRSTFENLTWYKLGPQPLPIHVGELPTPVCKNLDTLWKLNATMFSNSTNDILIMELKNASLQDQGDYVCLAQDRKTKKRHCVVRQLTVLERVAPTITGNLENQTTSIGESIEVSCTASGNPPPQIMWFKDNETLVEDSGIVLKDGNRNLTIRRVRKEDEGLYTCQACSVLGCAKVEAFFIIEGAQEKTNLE
- procedure.details: SPR (BIAcore 3000), VEGFR2 amine-coupled to CM5 chip, scVEGF as analyte, 1:1 model
I'd be grateful if you could share measured koff for these entries.
Please give the number followed by its unit.

Task: koff lookup needed for scVEGF-mM (designed binder, Soluble protein with C-terminal hexahistidine tag, with or without N-terminal FLAG tag (tags not included in the parts); also called scVEGFmut-M) EVVKAMDVYRRSYCHPVETSVDILQEYPDEIEYIFKPSCVPLMRCGGCCNDAGLECVPTEESNTTMQIMRIKPYRGQHIGEMSFLQHNKCECRPKKDGSTSGSGKSSEGKGEVVKFMDVYQRSYCHPIETLVDIFQEYPDEIEYAFKPSCVSLMRCGGCCNNEGLECVPTEESNITVQIMGAKPHQGQHIGEMSFLQHNKCECRPKKD , thanks.
Result: 0.00108 s⁻¹

Task: koff lookup needed for scVEGF-mA (designed binder, Soluble protein from P. pastoris with C-terminal hexahistidine tag, with or without N-terminal FLAG tag (tags not included in the parts); also called scVEGFmut-A) EVAKAMDVYQKSYCHPIETLVDILQEYPDEIGYIFKPSCVPLMRCGGCCNDAGLECVPTEESNITMQIMRIKPYQGQHIGEMSFLQHNKCECRPKKDGSTSGSGKSSEGKGEVVKFMDVYQRSYCHPIETLVDIFQEYPDKIEYAFKPSCVPLMRCGGCCNNEGLECVPTEESNITMQITRAKPHQGQHIGEMSFLQHNKCECRPKKD , thanks.
Result: 0.00049 s⁻¹
